Every entry's value here was drawn from PubChem BioAssay (NCI).

# Tested on: UACC-62 melanoma
# protocol description: NCI tumour cell line growth inhibition, 48 h
result type: TGI

Ask: Requested field: TGI. Item: "O=c1ssc2ncccc12"
Result: 24 µM

Ask: Requested field: TGI. Item: "COc1ccc(NC(=S)N=Nc2c(O)[nH]c3ccccc23)cc1"
Result: > 100 µM

Ask: Requested field: TGI. Item: "CC1=c2c(oc3cc(O)c(Nc4c(C)cc(O)cc4O)c(C)c23)=CC(=O)C1=Nc1c(C)cc(O)cc1O"
Result: > 100 µM

Ask: Requested field: TGI. Item: "N#Cc1c(N)nc(NCc2ccccc2)c(C#N)c1-c1ccc(Cl)cc1"
Result: 33.5 µM

Ask: Requested field: TGI. Item: CCOc1ccc(NC(=O)C(=O)C2C(=O)Nc3ccccc3S2=O)cc1 (stereo not given)
Result: > 100 µM

Ask: Requested field: TGI. Item: "COC1=CC(=C(C#N)C(=Nc2ccccc2)SC)C=C(OC)C1=O"
Result: > 100 µM

Ask: Requested field: TGI. Item: "N#Cc1c(-c2ccc(Cl)cc2)cc(-c2ccc(Nc3ccnc4cc(C(F)(F)F)ccc34)cc2)nc1N"
Result: 37.8 µM

Ask: Requested field: TGI. Item: CC(=O)N1N=C(c2cc(C)ccc2O)CC1c1cccc(Cl)c1 (stereo not given)
Result: 35.2 µM

Ask: Requested field: TGI. Item: "COc1ccc2nc(C)cc(NCCCCCCCCCNc3cc(C)nc4ccc(OC)cc34)c2c1"
Result: 7.34 µM

Ask: Requested field: TGI. Item: "O=C(COc1cccc(/C=C2/Oc3ccccc3C2=O)c1)Nc1nccs1"
Result: 95.9 µM

Ask: Requested field: TGI. Item: "N#Cc1ccc(Oc2nc3ccccc3nc2C(=O)O)cc1"
Result: > 100 µM

Ask: Requested field: TGI. Item: "Brc1ccc2[nH]cc([C@H]3CN[C@@H](c4c[nH]c5ccc(Br)cc45)CN3)c2c1"
Result: > 45.9 µM

Ask: Requested field: TGI. Item: "O=C(/C=C/c1c(O)ccc2ccccc12)c1ccccc1Cl"
Result: 29.9 µM

Ask: Requested field: TGI. Item: "CCOCc1cc(=O)c2c(O)cc3c(c2o1)CCC(C)(C)O3"
Result: > 100 µM

Ask: Requested field: TGI. Item: "CC(C)=CCC/C(C)=C/CC/C(C)=C/CCN(C)CCO"
Result: 27.1 µM

Ask: Requested field: TGI. Item: "CC(C)(OCc1ccccc1)c1ccccc1P(c1ccccc1)c1ccccc1"
Result: > 100 µM

Ask: Requested field: TGI. Item: "CC[N+](CC)(CC)Cc1cc2ccccc2n1C(=O)OC"
Result: > 100 µM

Ask: Requested field: TGI. Item: CCCCN(C(=O)c1ccccc1)C1CCC(=O)c2[nH]c3ccccc3c21 (stereo not given)
Result: > 100 µM

Ask: Requested field: TGI. Item: CCOC(=O)C1N(S(=O)(=O)c2ccc(C)cc2)CCC12c1ccccc1NC2c1ccc(OC)c(OC)c1 (stereo not given)
Result: > 100 µM

Ask: Requested field: TGI. Item: "O=C1CC[C@@]2(O)[C@H]3Cc4ccc(-c5cccc(O)c5)c5c4[C@@]2(CCN3CC2CC2)[C@H]1O5"
Result: 28.2 µM

Ask: Requested field: TGI. Item: CN1C(=O)N(C)C2C1NN=c1s/c(=C\c3ccccc3F)c(=O)n12 (stereo not given)
Result: > 100 µM

Ask: Requested field: TGI. Item: "CN1C(=O)/C(=C/c2c(Cl)[nH]c3ccccc23)c2ccccc21"
Result: > 100 µM

Ask: Requested field: TGI. Item: NC1CCC[C@H]1O (stereo not given in full)
Result: > 100 µM

###

Here the recorded TGI is given for each entry.
# System: NCI-H23 lung
# protocol description: NCI tumour cell line growth inhibition, 48 h

O=c1ssc2ncccc12 = > 100 µM

Ask: Requested field: TGI. Item: "Cc1coc2c1[C@@H](O)[C@@]1(C)[C@H](CCC[C@@H]1C)C2"
Result: > 100 µM

Ask: Requested field: TGI. Item: Oc1c(C(O)c2ccccn2)ccc2ccccc12 (stereo unspecified)
Result: > 100 µM

Ask: Requested field: TGI. Item: "Oc1c(-c2ccccc2)nc2ccccn12"
Result: > 100 µM

Ask: Requested field: TGI. Item: "O=C(CCc1n[nH]c(=S)o1)Nc1cc(Cl)c(Cl)cc1Cl"
Result: > 100 µM

Ask: Requested field: TGI. Item: "O=C1Cc2c([nH]c3ccc([N+](=O)[O-])cc23)-c2ccccc2N1"
Result: 6.37 µM

###

# System: SR leukemia
# protocol description: NCI tumour cell line growth inhibition, 48 h
result type: TGI

O=S(=O)(O)c1cc(N=Nc2c(O)ccc3ccccc23)c2c(S(=O)(=O)O)cccc2c1 = > 100 µM
O=C(O)c1c(-c2ccccc2)c(=O)[nH]c2ccccc12 = > 100 µM
COc1ccc(N2C(=O)CC(=O)N(C(=O)CCCCCCCCC(=O)N3C(=O)CC(=O)N(c4ccc(OC)cc4)C3=S)C2=S)cc1 = > 100 µM
CC(C)(OCc1ccccc1)c1ccccc1P(c1ccccc1)c1ccccc1 = > 100 µM

Ask: Requested field: TGI. Item: COc1ccc2c(c1)CN1C(=N2)CSC1c1c(Cl)cccc1[N+](=O)[O-] (stereo unspecified)
Result: 39 µM

Ask: Requested field: TGI. Item: COC(=O)C1CCC(NC(=O)c2csc([C@@H](C[C@H](C(C)C)N(C)C(=O)[C@@H](NC(=O)[C@H]3CCCCN3C)C(C)C)OC(C)=O)n2)CC1 (stereo partly specified)
Result: > 33.3 µM

###

Here the recorded TGI is given for each entry.
# Test system: HL-60(TB) leukemia
# protocol description: NCI tumour cell line growth inhibition, 48 h

The examples below pair each entry with its known result.
O=S(=O)(O)c1ccc(N=Nc2ccc(N=Nc3c(O)ccc4ccccc34)c(S(=O)(=O)O)c2)cc1 = > 100 µM
CC(=O)NC(Cc1cnc[nH]1)C(=O)N1CCCC1C(N)=O (stereo unspecified) = > 100 µM
CN1C(=O)N(C)C2C1NN=c1s/c(=C\c3ccccc3F)c(=O)n12 (stereo unspecified) = 0.633 µM
Cc1cc(C)c(C#N)c(SCC(=O)c2sc3c(C#N)c(C)cc(C)[n+]3c2[O-])n1 = 0.892 µM
CC1CC(C)CN(S(=O)(=O)c2cc(Cl)c(Oc3ccc([N+](=O)[O-])cc3Cl)c(Cl)c2)C1 (stereo unspecified) = > 100 µM
Nc1cc(N)c2nc(-c3ccccc3)c(Sc3ccc(Cl)c(Cl)c3)nc2c1 = > 100 µM

Ask: Requested field: TGI. Item: "N#Cc1cccc(N2C(=O)c3ccc(C(=O)c4ccc5c(c4)C(=O)N(c4cccc(C#N)c4)C5=O)cc3C2=O)c1"
Result: > 100 µM

Ask: Requested field: TGI. Item: "COc1ccc2nc(C)cc(NCCCCCCCCCNc3cc(C)nc4ccc(OC)cc34)c2c1"
Result: 5.25 µM

Ask: Requested field: TGI. Item: C[C@]12Cc3cn[nH]c3C(=O)C1CC[C@@H]1C2CC[C@@]2(C)C1CC[C@]2(C)O (stereo partly specified)
Result: > 100 µM

Ask: Requested field: TGI. Item: "Cc1nnc(N)nc1/C=C\c1ccc(N(C)C)cc1"
Result: 8.91 µM

Ask: Requested field: TGI. Item: "CN(CC(=O)O)S(=O)(=O)c1ccc(F)cc1"
Result: > 100 µM

###

# Test system: A549 NSCLC
# protocol description: NCI tumour cell line growth inhibition, 48 h
Here the recorded TGI is given for each entry.

The examples below pair each entry with its known result.
CNN1C(=O)c2c(N)c(C#N)c(-c3ccccc3)c(-c3ccccc3)c2C1=O = > 100 µM
O=c1c2c([nH]c3cc4c(cc13)OCO4)-c1ccccc1C2 = > 100 µM
Cn1c2c(c3ccc(-c4ccn[nH]4)cc3c1=O)C(=O)c1ccccc1-2 = 3.04 µM
COc1ccc2nc3c([N+](=O)[O-])ccc4c3c(c2c1)N(CCCN(C)C)C(=S)N4CCCN(C)C = 22.2 µM

Ask: Requested field: TGI. Item: "N#CC(C#N)N=Nc1ccc(-c2nc3ccccc3[nH]2)cc1"
Result: > 100 µM

###

# System: KM12 colon
# protocol description: NCI tumour cell line growth inhibition, 48 h
result type: TGI

Cc1cn(C2CC(n3cncn3)C(C(C)O)O2)c(=O)[nH]c1=O (centres undefined) = > 100 µM
Clc1ccc(Nc2nn3c(CCCCCCCCc4nnc5sc(Nc6ccc(Cl)cc6)nn45)nnc3s2)cc1 = > 100 µM

Ask: Requested field: TGI. Item: COc1cc(C2c3cc4c(cc3CC3COC(=O)N32)OCO4)cc(OC)c1OC (centres undefined)
Result: > 61.7 µM

Ask: Requested field: TGI. Item: "C[C@]12C=CC(=O)C=C1[C@@H](F)C[C@H]1[C@@H]3CC[C@](O)(C(=O)CO)[C@@]3(C)C[C@H](O)[C@@]12F"
Result: > 100 µM

Ask: Requested field: TGI. Item: C=C(CN(C)C)C1(c2ccccc2)CC2(CCCC2)C(=O)O1 (centres undefined)
Result: > 100 µM

Ask: Requested field: TGI. Item: O=CC1C(Cl)=Nc2nc3ccccc3n2C1c1ccc([N+](=O)[O-])cc1 (centres undefined)
Result: 82.9 µM

Ask: Requested field: TGI. Item: "O=c1c2c([nH]c3cc4c(cc13)OCO4)-c1ccccc1C2"
Result: 42.8 µM

Ask: Requested field: TGI. Item: "CCc1c2c(nc3ccc(OC(=O)NCc4ccc(B5OC(C)(C)C(C)(C)O5)cc4)cc13)-c1cc3c(c(=O)n1C2)COC(=O)[C@]3(O)CC"
Result: > 30.1 µM

Ask: Requested field: TGI. Item: "O=c1n(N=S(=O)(c2ccccc2)c2ccccc2)c(=O)n2n1C1C=CC2CC1"
Result: > 100 µM
